FYI, the data here is from patent US7767670B2.

SYSTEM UNDER TEST: MKNK2 (Homo sapiens, UniProt Q9HBH9)
Sequence (Q9HBH9 whole entry): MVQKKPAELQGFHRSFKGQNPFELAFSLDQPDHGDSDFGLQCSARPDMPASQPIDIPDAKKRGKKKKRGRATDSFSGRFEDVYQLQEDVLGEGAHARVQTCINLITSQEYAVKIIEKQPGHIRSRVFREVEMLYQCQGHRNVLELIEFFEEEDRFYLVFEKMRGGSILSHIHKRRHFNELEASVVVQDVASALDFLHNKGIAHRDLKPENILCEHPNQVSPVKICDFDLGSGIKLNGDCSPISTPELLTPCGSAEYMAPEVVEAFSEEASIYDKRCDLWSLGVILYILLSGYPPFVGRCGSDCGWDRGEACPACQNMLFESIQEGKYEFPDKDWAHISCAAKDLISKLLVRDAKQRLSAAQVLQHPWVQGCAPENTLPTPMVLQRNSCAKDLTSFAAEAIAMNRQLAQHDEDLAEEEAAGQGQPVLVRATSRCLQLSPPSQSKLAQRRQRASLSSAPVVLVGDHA
PROTOCOL SUMMARY: Binding constant (Kd) measurement, phage-displayed kinase competition binding assay
COND: immobilized ATP site ligand competition, read-out: activity towards the target (Kd)
pKd: −log10 of the molar value.
READOUT NAME: pKd

Task item: For the compound CC(C)(C)c1cc(NC(=O)Cc2ccc(NC(=O)c3ccc4cnccc4n3)cc2)no1 , what pKd is on record?
Reply: > 7.30
